Every entry's value here was drawn from the supplement of paper PMC9135407.

System: primary human hepatic stellate cells (donor 1)
procedure_details: scaled lipid accumulation score (0 = DMSO-like, 1 = nortriptyline-like); higher = stronger HSC inactivation (lipid re-accumulation), active = hit call of the paper
experimental_conditions: library stock concentration: 2 mM; 48 h
Where a name gives a salt, the structure may show the parent alone. Among all 5,800 compounds or so, about 620 (11%) showed activity.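 The calls were made as follows: active = score above a cut-off or among the top three wells of a plate; in these data no inactive exceeds 0.85.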 The list comes from a sample in which actives are over-represented; it also holds close analogues and randomly drawn compounds.
Just give me one of these, please: y (active), n (inactive)

Task item: Answer briefly: the call reported for COc1ccc2c3n(c(=NC(=O)c4cccnc4)nc2c1OC)CCN3 in this assay.
Reply: n

Task item: Please share the test call associated with Cc1cnc(Nc2ccc(F)cc2Cl)nc1-c1c[nH]c(C(=O)N[C@H](CO)c2cccc(Cl)c2)c1 .
Reply: n

Task item: Recorded test outcome, item Cn1cc(/C=C2\C(=O)Nc3cccnc32)c2ccccc21
Reply: n

Task item: Per the records of this test, what outcome belongs to COc1ccc2nc3n[nH]c(C)c3c(NCCOCCO)c2c1 ?
Reply: n

Task item: Which outcome did this test record for the molecule CNC(=O)c1cc(Oc2ccc(NC(=O)Nc3ccc(Cl)c(C(F)(F)F)c3)cc2)ccn1 [Sorafenib (Nexavar, BAY43-9006) (2 mM)] ?
Reply: n

Task item: Called result for Cc1ccc(NC(=O)c2ccc(CN3CCN(C)CC3)cc2)cc1Nc1nccc(-c2cccnc2)n1
Reply: n

Task item: Hi team, can someone confirm the assay call for c1cn2cc(-c3ccc4cn[nH]c4c3)nc(Nc3ccc(N4CCOCC4)cc3)c2n1 ?
Reply: y

Task item: So what was the verdict on CCNC(=O)c1noc(-c2cc(C(C)C)c(O)cc2O)c1-c1ccc(CN2CCOCC2)cc1 in this test?
Reply: n

Task item: Hi, do you know how COc1ncc(-c2ccc3nccc(-c4ccnnc4)c3c2)cc1NS(=O)(=O)c1ccc(F)cc1F came out in this test?
Reply: n

Task item: For COc1ccc(-c2ccc3ncc4c(c3c2)n(-c2ccc(N3CCNCC3)c(C(F)(F)F)c2)c(=O)n4C)cn1 , what call appears in the results of this test?
Reply: n

Task item: Could you check what this test reported for NC(=O)c1c(NC(=O)C2CC2)sc2c1CCCC2 ?
Reply: n

Task item: Give the logged outcome of this assay for the following molecule: Cl.Cl.NC1(c2ccc(-c3nc4ccn5c(=O)[nH]nc5c4cc3-c3ccccc3)cc2)CCC1
Reply: y

Task item: Per the assay record, what outcome was assigned to CCc1cc2c(cc1N1CCC(N3CCOCC3)CC1)C(C)(C)c1[nH]c3cc(C#N)ccc3c1C2=O ?
Reply: n

Task item: Assay outcome for OC1CCC(Nc2ncc3nc(Nc4c(F)cc(F)cc4F)n([C@@H]4CCOC4)c3n2)CC1 (stereo not given in full) : what was it?
Reply: n

Task item: Name the outcome recorded for CC(C)S(=O)(=O)Nc1ccc(F)c(C(=O)c2c[nH]c3ncc(-c4cccnc4)cc23)c1F in the assay.
Reply: n

Task item: Entry Cn1cc(C2=C(c3c4n(c5ccccc35)CCC(CN)C4)C(=O)NC2=O)c2ccccc21 (stereo not given) [Bisindoylmaleimide X HCl salt (Ro 31-8425) (2 mM)] : call = ?
Reply: n

Task item: # fetch the recorded call for CNC(=O)c1ccccc1Sc1ccc2c(/C=C/c3ccccn3)n[nH]c2c1 here
Reply: n

Task item: What classification did O=C(O)c1ccc2c(c1)nc(Nc1cccc(Cl)c1)c1ccncc12 end up with in this test?
Reply: n

Task item: Recorded test call requested for Cn1c(Nc2ccc(C(F)(F)F)cc2)nc2cc(Oc3ccnc(-c4ncc(C(F)(F)F)[nH]4)c3)ccc21
Reply: n

Task item: What outcome does the record of this test show for C=CC(=O)Nc1cc(-n2c(=O)ccc3cnc4ccc(-c5cn[nH]c5)cc4c32)ccc1C ?
Reply: n

Task item: Field: outcome | Entry: Cc1cnc(CNC(=O)c2c(=O)c3ccc(N4CCCN(C)CC4)nc3n3c2sc2ccccc23)cn1
Reply: n

Task item: Can you look up the reported call for CCCOc1ccc(C=C2SC(=O)NC2=O)cc1 for me?
Reply: n

Task item: What did this assay record as the result for CN1CCN(c2ccc(OC(F)(F)F)c(Nc3ncc4c(n3)-c3c(c(C(N)=O)nn3CCO)CC4)c2)CC1 ?
Reply: n

Task item: Please indicate how the test categorized CC(C)n1cnc2c(NCc3ccccc3)nc(NCCCO)nc21 .
Reply: n

Task item: # lookup: test call for CNC(=O)c1cc(Oc2ccc(NC(=O)Nc3ccc(Cl)c(C(F)(F)F)c3)cc2)ccn1
Reply: n

Task item: What was the test verdict on COc1cc(OC)cc(-c2ccc3ncc4ccc(=O)n(-c5ccc(N6CCNCC6)c(C(F)(F)F)c5)c4c3c2)c1 ?
Reply: n

Task item: Fill in: this test's call for Cc1nn(C)c(COc2ccc(N3CCN(S(=O)(=O)N(C)C)CC3)cc2)c1-c1cccc2c(CCCOc3cccc4ccccc34)c(C(=O)O)n(CCN3CCOCC3)c12 is ___
Reply: n

Task item: Call for entry Cc1cc(/N=N/c2cc(S(=O)(=O)O)c(C)cc2C)c(N)cc1O :
Reply: n

Task item: # lookup: test call for COc1ccc(C2(CNC(=O)c3ccc(NC(=O)c4ccco4)cc3)CCOCC2)cc1
Reply: n

Task item: What did the test return for CNC(=O)c1cc(Oc2ccc(NC(=O)Nc3ccc(Cl)c(C(F)(F)F)c3)c(F)c2)ccn1 ?
Reply: n

Task item: What classification did S=C(NCc1ccc2c(c1)OCO2)N1CCN(c2ncnc3c2oc2ccccc23)CC1 end up with in this test?
Reply: n

Task item: Test call, this molecule: COCCOc1ccc2c(c1)ncn2-c1ccc2cccc(N3CCC(N)CC3)c2n1
Reply: n

Task item: Which outcome was entered for the molecule CCN(CC)CCCCNc1ncc2c(n1)N(C)C(=O)N(c1c(Cl)c(OC)cc(OC)c1Cl)C2 in this test?
Reply: n

Task item: Could you kindly confirm the outcome this assay logged for C1=N/C2=N/c3ccc(OCCN4CCCC4)c(c3)COC/C=C/COCc3cccc(c3)C(=C1)N2 ?
Reply: n

Task item: Just curious, what result did COc1cc(N2CCC(C(N)=O)CC2)ccc1Nc1nc(N)c(Cl)c(Nc2ccccc2S(=O)(=O)C(C)C)n1 get here?
Reply: n
